test system: THRa:RXRa (NR concentration 90 nM, RXRa partner concentration 90 nM); experiment: PBM binding z-score (relative to random genomic background probes); higher = stronger binding; sequences stand for … in GC…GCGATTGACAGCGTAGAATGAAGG
Parameter PBM binding z-score: see the listing below.
Give the value as a plain number.

Check out these entries, answers already filled in.
sequence_input=TCATATAGGTAATACAGGTGAAAATCGGCATCTA assayed_target="THRa:RXRa (NR concentration 90 nM, RXRa partner concentration 90 nM)" measured_attribute="PBM binding z-score" numeric_result=0.836
sequence_input=GCTGCTAGGTCAGGTAGGTCAGCTAACGGGTACG assayed_target="THRa:RXRa (NR concentration 90 nM, RXRa partner concentration 90 nM)" measured_attribute="PBM binding z-score" numeric_result=2.78
sequence_input=TCATATAGGTAATTCAGGTGAAAGTCGGCATCTA assayed_target="THRa:RXRa (NR concentration 90 nM, RXRa partner concentration 90 nM)" measured_attribute="PBM binding z-score" numeric_result=2.52

Query string: So what does the record say about PBM binding z-score for CAAACTAGGTCACCGGAAGGTCGAAGTCCGCATG ?
Result string: 4.04

Query string: So what does the record say about PBM binding z-score for CCTACTGGGCCATCATGTCATTGATATCAACGTT ?
Result string: 0.045

Query string: So what does the record say about PBM binding z-score for CCTTACGGGTCACGAGGTTATAGAACGACGAGCG ?
Result string: 3.8

----------
test system: FXR:RXRa (NR concentration 270 nM, RXRa partner concentration 90 nM); experiment: PBM binding z-score (relative to random genomic background probes); higher = stronger binding; sequences stand for … in GC…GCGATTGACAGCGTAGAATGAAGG
Kindly return criterion met if reported PBM binding z-score is no lower than 3; return criterion not met if it is lower.

Query string: Say whether ATATGTACGTTAGCTGGGGTCATTCAGACTAGGC shows PBM binding z-score of 3 or more.
Result string: criterion met

Query string: Say whether CGTCCAAGTTCAAGGTAACGTAACAGAAAGCAGC shows PBM binding z-score of 3 or more.
Result string: criterion not met

----------
system: FXR:RXRa (NR concentration 270 nM, RXRa partner concentration 90 nM); experiment: PBM binding z-score (relative to random genomic background probes); higher = stronger binding; sequences stand for … in GC…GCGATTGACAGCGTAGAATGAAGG
Kindly return condition met if reported PBM binding z-score is no lower than 2; return condition not met if it is lower.

Reference set (5 entries):
sequence_input=ACAGACAGGTGATGAACGTAACTCAGGCTATCAT class_name="condition not met"
sequence_input=TCATATAGGTAAATGCTATGTGAAAGTCCGATCT class_name="condition not met"
sequence_input=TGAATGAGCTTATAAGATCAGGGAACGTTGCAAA class_name="condition not met"
sequence_input=ATCTCTAGGTACAGATAGTTCAGTGAATGCAAAT class_name="condition not met"
sequence_input=ATATGTAGGTTAAGTGTCATTCAGGTTGGTTCGC class_name="condition not met"

Query string: Say whether AATACAGGGTCATCGTAGGCTAGAGTACGCACAG shows PBM binding z-score of 2 or more.
Result string: condition met

Query string: Say whether TTTTGTAGATCAATAGAGGTTAAGAAAGTGCGCT shows PBM binding z-score of 2 or more.
Result string: condition not met

Query string: Say whether AGAATGAGGTTATTAAGATCACGGAATTGCGGTC shows PBM binding z-score of 2 or more.
Result string: condition not met

Query string: Say whether CCAGACAGGTGAAAGGTAACTCTGTCTGGTACGC shows PBM binding z-score of 2 or more.
Result string: condition not met

Query string: Say whether CATCCAAGGTCAAGGTCAGTGAAAGAGACTCGAA shows PBM binding z-score of 2 or more.
Result string: condition met

Query string: Say whether CCTGCTAGGTCACTGGTCAGCTAAAGCAGCTCGC shows PBM binding z-score of 2 or more.
Result string: condition met
